# measurement.target: T1, human MSR1 extracellular domain expressed with a N-terminal nonahistidine tag (His9-hMSR1); R&D Systems, Cat … (human, UniProt P21757 77-451)
# T1 construct: extracellular domain; also called His-hMSR1; 9xHis-hMSR1; not shown: N-terminal nonahistidine tag
# T1 sequence (looked up): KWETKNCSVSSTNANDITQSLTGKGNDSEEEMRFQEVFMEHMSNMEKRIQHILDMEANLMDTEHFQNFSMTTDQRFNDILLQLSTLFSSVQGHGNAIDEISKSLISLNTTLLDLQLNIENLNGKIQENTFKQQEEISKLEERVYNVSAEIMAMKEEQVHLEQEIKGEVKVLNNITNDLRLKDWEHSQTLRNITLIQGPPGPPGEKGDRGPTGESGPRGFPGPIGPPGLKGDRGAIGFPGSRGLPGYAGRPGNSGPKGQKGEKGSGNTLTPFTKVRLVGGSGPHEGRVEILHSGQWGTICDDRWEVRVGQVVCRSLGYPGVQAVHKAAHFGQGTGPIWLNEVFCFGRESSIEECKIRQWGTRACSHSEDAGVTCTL
# assay.text: SPR Biacore, 25 C, antibody captured; kd fixed, no dissociation seen
measurement.kind: t½ (h)
Answers are plain numbers, in h.

Worked cases, t½ given:
{"columns": ["binder", "t½ (h)"],
 "data": [
  ["H1H21234N (antibody, V domains shown, Original human IgG1 Fc (no N297 mutation)) VH: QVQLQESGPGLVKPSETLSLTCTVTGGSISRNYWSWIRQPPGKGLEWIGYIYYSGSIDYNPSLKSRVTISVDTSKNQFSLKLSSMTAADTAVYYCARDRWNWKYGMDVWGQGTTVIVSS VL: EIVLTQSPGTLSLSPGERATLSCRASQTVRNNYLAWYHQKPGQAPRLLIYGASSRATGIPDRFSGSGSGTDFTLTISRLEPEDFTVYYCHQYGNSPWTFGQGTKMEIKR", 19.2],
  ["H1H27754P-N297Q (antibody, V domains shown, Human IgG1 Fc with N297Q point mutation) VH: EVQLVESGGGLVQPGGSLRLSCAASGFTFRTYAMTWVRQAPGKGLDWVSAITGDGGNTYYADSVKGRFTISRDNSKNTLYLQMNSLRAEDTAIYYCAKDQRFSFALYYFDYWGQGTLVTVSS VL: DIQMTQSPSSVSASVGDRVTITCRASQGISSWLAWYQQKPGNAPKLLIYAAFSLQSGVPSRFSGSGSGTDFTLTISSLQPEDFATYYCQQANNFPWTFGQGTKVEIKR", 19.2],
  ["H1H27732P-N297Q (antibody, V domains shown, Human IgG1 Fc with N297Q point mutation) VH: QLQLQESGPGLVKPSETLSLTCTVSGGSISSSTYYWGWIRQPPGKGLEWIGSFYYSGSTYYNPSLKSRVTISVGTSKNQFSLKLSSVTAADTAVYFCARGGLLGRPFVIWGQGTMVTVSS VL: DIQMTQSPSSLSASVGDRVTITCRASQGIRNDLGWYQQKPGKAPKRLIYAASSLQSGVPSRFSGSGSGTEFTLTISSLQPEDFATYYCLQHNSYPLTFGGGTKVEIKR", 19.2]
]}

Reported t½ for H1H21234N-N297Q (antibody, V domains shown, Human IgG1 Fc with N297Q point mutation (EU numbering)) VH: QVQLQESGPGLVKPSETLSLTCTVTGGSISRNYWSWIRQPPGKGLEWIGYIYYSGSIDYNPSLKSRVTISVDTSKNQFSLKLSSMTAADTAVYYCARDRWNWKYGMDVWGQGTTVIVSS VL: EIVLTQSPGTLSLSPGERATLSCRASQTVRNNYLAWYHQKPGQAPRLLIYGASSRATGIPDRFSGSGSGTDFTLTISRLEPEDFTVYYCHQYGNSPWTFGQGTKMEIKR : what is it?
19.2
